Origin of values: patent US7563787B2

target: recombinant Aurora A (Homo sapiens); construct: purchased Upstate, Lake Placid, N.Y; experiment: Aurora A (Aurora 2) Inhibition Assay (Z'-Lyte); type: biochemical; details: 100 μM compound; ATP 10 μM; 1 h
As shown below, each of these compounds has a reported inhibition at 100 µM value.
State just the number; it will be interpreted in %.

Here's what some known entries look like.
1) Cc1cc(Nc2nc(/C=C/c3ccccc3)nc(N3CCOCC3)c2N)[nH]n1 | 100
2) COC(=O)c1ccc(/C=C/c2nc(Cl)c([N+](=O)[O-])c(Nc3cc(C)[nH]n3)n2)cc1 | 80

The compound listed as Cc1cc(Nc2nc(/C=C/c3ccc(Cl)cc3)nc(N3CCN(C)CC3)c2N)n[nH]1 shows inhibition at 100 µM equal to 99

The compound listed as Cc1cc(Nc2cc(NCCN3CCN(C)CC3)nc(/C=C/c3ccccc3)n2)n[nH]1 shows inhibition at 100 µM equal to 100

The compound listed as Cc1cc(Nc2nc(/C=C/c3ccc(F)cc3)nc(N3CCN(C)CC3)c2N)n[nH]1 shows inhibition at 100 µM equal to 100

###

As shown below, each of these molecules has a reported inhibition at 100 µM value.
Biological target: recombinant Aurora A (Homo sapiens, UniProt O14965)
Construct: purchased Upstate, Lake Placid, N.Y
Sequence (O14965 1-403): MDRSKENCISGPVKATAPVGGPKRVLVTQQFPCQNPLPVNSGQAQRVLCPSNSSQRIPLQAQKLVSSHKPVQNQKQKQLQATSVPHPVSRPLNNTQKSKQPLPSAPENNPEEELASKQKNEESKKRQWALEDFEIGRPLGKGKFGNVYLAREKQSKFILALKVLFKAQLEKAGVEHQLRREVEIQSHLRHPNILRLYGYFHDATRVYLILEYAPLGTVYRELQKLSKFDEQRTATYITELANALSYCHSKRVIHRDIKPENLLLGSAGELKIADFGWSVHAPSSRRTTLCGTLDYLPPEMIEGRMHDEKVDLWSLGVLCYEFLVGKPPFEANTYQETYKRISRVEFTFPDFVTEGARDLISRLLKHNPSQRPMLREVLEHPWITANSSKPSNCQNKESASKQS
Test: Aurora A (Aurora 2) Inhibition Assay (Z'-Lyte)
Assay type: biochemical
Details: 100 μM compound; ATP 10 μM; 1 h
State just the number; it will be interpreted in %.

1) COC(=O)c1cc(Nc2cc(C)n[nH]2)nc(/C=C/c2ccccc2)n1 [Example 26] | 99
2) COC(=O)c1ccc(/C=C/c2nc(Nc3cc(C)[nH]n3)c(N)c(N3CCN(C)CC3)n2)cc1 [Example 39] | 100

--- query ---
Lab note: molecule Cc1cc(Nc2nc(/C=C/c3ccccc3)nc(N3CCN(C)CC3)c2N)[nH]n1 [Example 10] tested on recombinant Aurora A (Homo sapiens, UniProt O14965); recorded inhibition at 100 µM was 100

###

Molecular target: recombinant Aurora A (Homo sapiens, UniProt O14965)
Construct: purchased Upstate, Lake Placid, N.Y
Sequence (O14965 1-403): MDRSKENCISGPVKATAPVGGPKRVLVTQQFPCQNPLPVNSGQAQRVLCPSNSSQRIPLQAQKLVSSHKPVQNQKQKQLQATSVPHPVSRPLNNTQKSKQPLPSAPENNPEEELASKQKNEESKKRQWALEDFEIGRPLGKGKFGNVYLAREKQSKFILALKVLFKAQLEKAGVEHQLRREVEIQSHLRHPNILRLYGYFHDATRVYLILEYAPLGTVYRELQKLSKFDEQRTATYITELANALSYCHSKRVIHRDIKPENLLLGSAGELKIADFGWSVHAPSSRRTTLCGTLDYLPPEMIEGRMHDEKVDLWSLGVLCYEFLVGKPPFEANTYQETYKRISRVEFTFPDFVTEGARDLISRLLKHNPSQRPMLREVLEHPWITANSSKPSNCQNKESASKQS
Assay: Aurora A (Aurora 2) Inhibition Assay (Z'-Lyte)
Assay type: biochemical
Details: 100 μM compound; ATP 10 μM; 1 h
readout: inhibition at 100 µM (%)
State just the number; it will be interpreted in %.

Here's what some known entries look like.
1. Cc1cc(Nc2nc(/C=C/c3ccccc3)nc(C(=O)OC3CCN(C)CC3)c2N)[nH]n1 | 100
2. Cc1cc(Nc2cc(OCCN(C)C)nc(/C=C/c3ccccc3)n2)n[nH]1 | 100
3. Cc1ccc(/C=C/c2nc(Nc3cc(C)[nH]n3)c(N)c(N3CCN(C)CC3)n2)cc1 | 100
4. Cc1cc(Nc2cc(N3CCN(C)CC3)nc(C#Cc3ccccc3)n2)n[nH]1 | 100
5. Cc1ccc(/C=C/c2nc(Nc3cc(C)[nH]n3)c([N+](=O)[O-])c(N3CCN(C)CC3)n2)cc1 | 95

Lab note: compound CCOC(=O)c1nc(/C=C/c2ccc(C(F)(F)F)cc2)nc(Nc2cc(C)n[nH]2)c1N tested on recombinant Aurora A (Homo sapiens, UniProt O14965); recorded inhibition at 100 µM was 77

Lab note: compound Cc1cc(Nc2nc(/C=C/c3ccccc3)nc(C(=O)NCCN3CCOCC3)c2N)[nH]n1 tested on recombinant Aurora A (Homo sapiens, UniProt O14965); recorded inhibition at 100 µM was 100

Lab note: compound Cc1cc(Nc2nc(/C=C/c3ccccc3)nc(N3CCCCC3)c2N)[nH]n1 tested on recombinant Aurora A (Homo sapiens, UniProt O14965); recorded inhibition at 100 µM was 98

Lab note: compound CCOC(=O)c1nc(/C=C/c2ccc(Cl)cc2)nc(Nc2cc(C)n[nH]2)c1N tested on recombinant Aurora A (Homo sapiens, UniProt O14965); recorded inhibition at 100 µM was 99
